Biological target: T1, mOrai1-hOrai1 ECL2 (…) protein (human/mouse chimera, UniProt Q8BWG9 1-304 (mouse entry))
T1 construct: also called Ch
T1 sequence (Q8BWG9 other isoform, or with tags, fused parts or gaps): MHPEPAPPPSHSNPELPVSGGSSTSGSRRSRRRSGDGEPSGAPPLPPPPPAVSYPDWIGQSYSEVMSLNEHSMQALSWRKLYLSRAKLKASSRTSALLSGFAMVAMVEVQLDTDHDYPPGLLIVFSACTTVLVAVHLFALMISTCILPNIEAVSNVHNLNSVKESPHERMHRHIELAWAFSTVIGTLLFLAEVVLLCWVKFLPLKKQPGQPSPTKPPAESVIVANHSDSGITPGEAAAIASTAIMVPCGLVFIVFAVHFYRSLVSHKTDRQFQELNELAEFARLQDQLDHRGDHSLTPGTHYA
Assay: flow cytometry on HEK-293 cells transfected with the chimera (loss of binding experiment)
measured_endpoint: binding result

mAb 5B5.2 (antibody, human IgG2, lambda, V domains shown, fully human IgG2 lambda, Campaign 2; same chains as 5B5.1) VH: QVQLVQSGAEVKKPGASVKVSCKASGYTFTDYYINWVRQAPGQGLEWMGWINPNSGGTDYAQKFQGRVTMTRDTSIRTAYMELNRLTSDDTAVYYCAREYGGYEDWFDPWGQGTLVTVSS VL: QSVLTQPPSVSGAPGQRVTISCTGSNSNIGAGFDVHWYQQLPGTVPKLLIYGNNNRPSGVPDRFSGSKSGTSASLAITGLQAEDEADYYCQSYDSRLTVFGGGTKLTVLG ... no binding
mAb 5B1.1 (antibody, human IgG2, lambda, V domains shown, fully human IgG2 lambda, Campaign 2; also called mAb 5Bl1.1) VH: QVQLVQSGAEVKKPGASVKVSCKASGYTFTDYYINWVRQAPGQGLEWMGWINPNSGGSSYAQKFQGRVTMTRDTSISTAHMELIRLRSDDTAVYYCARERGGIEDWFDPWGQGTLVTVSS VL: QSVLTQPPSVSGAPGQRVTISCTGSSSNIGAGYDVHWYQQLPGTAPKLLIYGNSNRPSGVPDRFSGSKSGTSASLAITKFQAEDEAVYYCQSYGSGLSGVVFGGGTKLTVLG ... no binding
